Test system: OVCAR-5 complex spheroid (HUVEC/MSC), viability % T/C
Assay: Anticancer human tumor OVCAR-5 cell line growth inhibition [Asc];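 note: spheroids exposed to agents for 7 days before readout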
Details: curve of first compound; second compound 0.0949 µM
Readout label: pIC50
Give bare numbers, as −log10 of the molar value.

Measured pIC50 for this entry C#Cc1c(F)ccc2cc(O)cc(-c3ncc4c(N5CC6CCC(C5)N6)nc(OCC56CCCN5CC(F)C6)nc4c3F)c12 (configuration not stated) + CCN1C(C(=O)NC23CCC(C(=O)O)(CC2)CC3)C(c2cccc(Cl)c2F)C2(C(=O)Nc3cc(Cl)ccc32)C12CCCCC2 on OVCAR-5 complex spheroid (HUVEC/MSC), viability % T/C: 5.17

----------
Could you please report measured IC50 for the items listed next?
Test system: OVCAR-5 complex spheroid (HUVEC/MSC), viability % T/C
Assay: Anticancer human tumor OVCAR-5 cell line growth inhibition [Asc];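 note: spheroids exposed to agents for 7 days before readout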
Settings: curve of first compound; second compound 0.0949 µM

Take a look at these entries with their results.
INSERT INTO measurements (compound, value_reported) VALUES
  ('CNC(C)C(=O)NC1CN(S(=O)(=O)c2cccc(S(=O)(=O)N3CCC4CCC(C(=O)NC(c5ccccc5)c5ccccc5)N4C(=O)C(NC(=O)C(C)NC)C3)c2)CCC2CCC(C(=O)NC(c3ccccc3)c3ccccc3)N2C1=O (centres undefined) + CCN1C(C(=O)NC23CCC(C(=O)O)(CC2)CC3)C(c2cccc(Cl)c2F)C2(C(=O)Nc3cc(Cl)ccc32)C12CCCCC2', '> 1000 nM'),
  ('CCN1CCN(Cc2ccc(Nc3ncc(F)c(-c4cc(F)c5nc(C)n(C(C)C)c5c4)n3)nc2)CC1 + CCN1C(C(=O)NC23CCC(C(=O)O)(CC2)CC3)C(c2cccc(Cl)c2F)C2(C(=O)Nc3cc(Cl)ccc32)C12CCCCC2', '> 1000 nM'),
  ('NC(=O)C(=Cn1cnc(-c2cc(C(F)(F)F)cc(C(F)(F)F)c2)n1)c1cncnc1 + CCN1C(C(=O)NC23CCC(C(=O)O)(CC2)CC3)C(c2cccc(Cl)c2F)C2(C(=O)Nc3cc(Cl)ccc32)C12CCCCC2', '> 300 nM');

Proceed to the following item.
Record C=C(F)C(=O)N1CCN(c2nc(OCC3CCCN3C)nc3c2CCN(c2cccc4cccc(Cl)c24)C3)CC1CC#N (centres undefined) + CCN1C(C(=O)NC23CCC(C(=O)O)(CC2)CC3)C(c2cccc(Cl)c2F)C2(C(=O)Nc3cc(Cl)ccc32)C12CCCCC2 , field IC50: 1260 nM

----------
Tested on: OVCAR-5 complex spheroid (HUVEC/MSC), viability % T/C
Experiment: Anticancer human tumor OVCAR-5 cell line growth inhibition [Asc];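 note: spheroids exposed to agents for 7 days before readout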
Details: curve of first compound; second compound 0.1 µM
pIC50: −log10 of the molar value.
Readout label: pIC50

INSERT INTO results (compound, readout_label, value_reported) VALUES
  ('O=C(c1cc(Cc2n[nH]c(=O)c3ccccc23)ccc1F)N1CCN(C(=O)C2CC2)CC1 + Cc1c(S(C)(=O)=O)c(-c2cc(F)cc(N3CCN(c4ccc(NS(=O)(=O)c5ccc(NC(CCN6CCC(C(=O)OCCCP(=O)(O)O)CC6)CSc6ccccc6)c(S(=O)(=O)C(F)(F)F)c5)cc4)CC3)c2)c(-c2ccc(Cl)cc2)n1C(C)C', 'pIC50', '< 5.00'),
  ('CNC(C)C(=O)NC1CN(S(=O)(=O)c2cccc(S(=O)(=O)N3CCC4CCC(C(=O)NC(c5ccccc5)c5ccccc5)N4C(=O)C(NC(=O)C(C)NC)C3)c2)CCC2CCC(C(=O)NC(c3ccccc3)c3ccccc3)N2C1=O (stereo not drawn) + Cc1c(S(C)(=O)=O)c(-c2cc(F)cc(N3CCN(c4ccc(NS(=O)(=O)c5ccc(NC(CCN6CCC(C(=O)OCCCP(=O)(O)O)CC6)CSc6ccccc6)c(S(=O)(=O)C(F)(F)F)c5)cc4)CC3)c2)c(-c2ccc(Cl)cc2)n1C(C)C', 'pIC50', '< 6.00');

Proceed to the following item.
Record C=C(F)C(=O)N1CCN(c2nc(OCC3CCCN3C)nc3c2CCN(c2cccc4cccc(Cl)c24)C3)CC1CC#N (stereo not drawn) + Cc1c(S(C)(=O)=O)c(-c2cc(F)cc(N3CCN(c4ccc(NS(=O)(=O)c5ccc(NC(CCN6CCC(C(=O)OCCCP(=O)(O)O)CC6)CSc6ccccc6)c(S(=O)(=O)C(F)(F)F)c5)cc4)CC3)c2)c(-c2ccc(Cl)cc2)n1C(C)C , field pIC50: 6.10

# credit: PubChem BioAssay AID1963436
